- Target: T1, HLA-DR4 (DRB1*0401) molecules, affinity purified (human)
- T1 construct: mature; Used at 0.05-5 uM in the assay
- Test Method Notes: semi-quantitative competition with biotinylated IHA(307-319)F for purified HLA-DR; range taken from the table legend for grade +
pIC50: −log10 of the molar value.
Metric Name: pIC50

Indicate the recorded pIC50 value for this binder: AGWLSDGSVQYPI (also called HCIP1) [HCLP1]
4.00 to 5.00
